ΔTm overview
Biological target: UniProt:P49760
Sequence (P49760 whole entry, looked up): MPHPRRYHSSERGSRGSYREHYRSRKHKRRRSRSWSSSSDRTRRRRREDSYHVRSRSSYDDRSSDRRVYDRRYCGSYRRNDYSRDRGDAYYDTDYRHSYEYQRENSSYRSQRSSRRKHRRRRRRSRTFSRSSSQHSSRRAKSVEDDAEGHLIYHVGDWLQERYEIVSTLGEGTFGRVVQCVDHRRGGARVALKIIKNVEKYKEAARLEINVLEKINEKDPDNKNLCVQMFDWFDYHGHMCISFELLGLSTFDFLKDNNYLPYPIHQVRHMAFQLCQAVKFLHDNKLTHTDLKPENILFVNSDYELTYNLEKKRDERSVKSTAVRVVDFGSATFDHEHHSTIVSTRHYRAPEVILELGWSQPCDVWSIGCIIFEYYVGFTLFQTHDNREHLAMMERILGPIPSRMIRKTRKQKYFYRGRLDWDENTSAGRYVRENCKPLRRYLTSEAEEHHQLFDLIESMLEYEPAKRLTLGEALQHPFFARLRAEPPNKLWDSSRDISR
Number in °C, nothing else.

smiles	tested on	ΔTm, °C
O=Nc1c(-c2c(O)[nH]c3ccccc23)[nH]c2ccccc12	UniProt:P49760	1.5
Cn1cc(/C=C2/C(=O)Nc3ccc(S(N)(=O)=O)cc32)c2ccccc21	UniProt:P49760	3.6
COc1ccc(CNC(=O)Nc2ncc([N+](=O)[O-])s2)cc1	UniProt:P49760	-0.9
CN1CCC(Nc2ncc3ncnc(Nc4ccc(F)c(Cl)c4)c3n2)CC1	UniProt:P49760	4.2
O=C1C(Cl)=C(N2C(=O)CCC2=O)C(=O)c2ccccc21	UniProt:P49760	-1.3

Query: Enter recorded ΔTm with UniProt:P49760 for COc1ccc(S(=O)(=O)N(CCO)c2ccccc2CN(C)C/C=C/c2ccc(Cl)cc2)cc1 here.
Result: -0.3

Query: Enter recorded ΔTm with UniProt:P49760 for C[C@@H]1C[C@H]2O[C@@H]2/C=C\C=C\C(=O)Cc2c(Cl)c(O)cc(O)c2C(=O)O1 here.
Result: 0.1

Query: Enter recorded ΔTm with UniProt:P49760 for O=c1c(-c2ccc(F)cc2)c(-c2ccncc2)[nH]n1-c1ccc(Cl)cc1 here.
Result: 0.8

Query: Enter recorded ΔTm with UniProt:P49760 for Cc1[nH]c(/C=C2\C(=O)Nc3ccc(S(=O)(=O)N(C)c4cccc(Cl)c4)cc32)c(C)c1C(=O)N1CCN(C)CC1 here.
Result: 5.9

Query: Enter recorded ΔTm with UniProt:P49760 for Brc1c(Br)c(Br)c2[nH]nnc2c1Br here.
Result: 2.4
